Target: T1, full-length untagged human GPNMB expressed on cells (human, UniProt Q14956 23-572)
T1 sequence: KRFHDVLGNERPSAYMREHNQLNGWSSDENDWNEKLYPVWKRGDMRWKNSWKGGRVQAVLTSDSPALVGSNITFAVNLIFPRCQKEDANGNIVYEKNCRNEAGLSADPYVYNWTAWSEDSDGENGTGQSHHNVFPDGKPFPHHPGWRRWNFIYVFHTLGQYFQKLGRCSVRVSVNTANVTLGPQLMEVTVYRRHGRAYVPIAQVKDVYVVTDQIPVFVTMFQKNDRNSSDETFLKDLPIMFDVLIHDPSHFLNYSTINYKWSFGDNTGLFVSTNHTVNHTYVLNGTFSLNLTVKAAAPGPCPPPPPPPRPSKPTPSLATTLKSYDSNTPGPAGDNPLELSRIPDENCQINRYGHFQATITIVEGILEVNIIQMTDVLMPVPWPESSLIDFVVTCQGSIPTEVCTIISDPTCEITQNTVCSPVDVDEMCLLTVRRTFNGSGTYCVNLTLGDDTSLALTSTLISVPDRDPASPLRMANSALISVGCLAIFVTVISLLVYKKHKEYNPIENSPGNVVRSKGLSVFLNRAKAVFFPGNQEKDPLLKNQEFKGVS
Assay: cell-based or functional assay
Here the recorded EC50 PDL1 is given for each entry.
Expressed in nM, but write only the number.

Record excerpt, results attached:
# binder, units-of-measure, EC50 PDL1
data = [
    ("anti-GPNMB antibody GPN-83 (antibody, V domains shown) VH: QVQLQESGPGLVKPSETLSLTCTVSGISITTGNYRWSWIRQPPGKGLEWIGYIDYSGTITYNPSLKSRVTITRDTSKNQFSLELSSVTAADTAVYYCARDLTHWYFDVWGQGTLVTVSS VL: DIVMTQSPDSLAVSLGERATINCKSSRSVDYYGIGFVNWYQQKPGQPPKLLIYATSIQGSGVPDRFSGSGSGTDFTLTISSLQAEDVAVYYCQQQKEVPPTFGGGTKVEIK", "nM", 0.91),
    ("anti-GPNMB antibody GPN-97 (antibody, V domains shown) VH: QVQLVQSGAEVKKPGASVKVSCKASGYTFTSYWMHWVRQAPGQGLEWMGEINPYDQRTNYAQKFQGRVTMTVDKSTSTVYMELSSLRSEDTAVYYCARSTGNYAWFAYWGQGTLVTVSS VL: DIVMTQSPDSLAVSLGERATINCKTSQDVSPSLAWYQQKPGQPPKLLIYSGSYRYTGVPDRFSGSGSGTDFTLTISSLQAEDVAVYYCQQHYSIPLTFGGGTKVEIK", "nM", 0.75),
]

Could you now consider this next binder?
Given item anti-GPNMB antibody GPN-98 (antibody, V domains shown) VH: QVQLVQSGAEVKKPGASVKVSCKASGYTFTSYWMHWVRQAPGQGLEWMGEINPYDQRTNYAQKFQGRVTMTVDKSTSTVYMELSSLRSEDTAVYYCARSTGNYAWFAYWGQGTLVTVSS VL: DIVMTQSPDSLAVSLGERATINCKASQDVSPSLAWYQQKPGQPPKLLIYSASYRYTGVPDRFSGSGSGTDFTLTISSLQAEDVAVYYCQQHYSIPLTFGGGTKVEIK , the value recorded as its EC50 PDL1 is 1.24
